Give log10(EC90) for every item shown.
# Test system: HCV replicon GT1a_L31V
# PROCEDURE SUMMARY: Cell-based HCV replicon assay, GT1a L31V
# MEASUREMENT CONDITIONS: Hepatitis C virus, 72 h, read-out: GT1a_L31V EC90
# log10 transformed; quantity=EC90; unit=nM

Which log10(EC90) is reported for this compound? COC(=O)N[C@H](C(=O)N1CCC[C@H]1c1ncc(-c2cc(F)c3c(c2)O[C@@H](c2ccc(C4CC4)s2)n2c-3cc3cc(-c4cnc([C@@H]5C[Si](C)(C)CN5C(=O)[C@@H](N)c5ccccc5)[nH]4)ccc32)[nH]1)C(C)C [Compound 18] -1.17

Which log10(EC90) is reported for this compound? COC(=O)NC(C(=O)N1CCC[C@H]1c1ncc(-c2ccc3c(c2)cc2n3[C@H](c3cnc(C4CC4)s3)Oc3cc(-c4cnc([C@@H]5C[Si](C)(C)CN5C(=O)[C@@H](NC(=O)OC)[C@@H]5CCOC(C)(C)C5)[nH]4)cc(F)c3-2)[nH]1)C(C)C (stereo partly shown) [Compound 8] -2.06

Which log10(EC90) is reported for this compound? COC(=O)N[C@H](C(=O)N1CCC[C@H]1c1ncc(-c2cc(F)c3c(c2)O[C@@H](c2ccc(C4CC4)s2)n2c-3cc3cc(-c4cnc([C@@H]5C[Si](C)(C)CN5C(=O)[C@H](N)c5ccccc5)[nH]4)ccc32)[nH]1)C(C)C [Compound 17] 0.25

Which log10(EC90) is reported for this compound? COC(=O)NC(C(=O)N1CCC[C@H]1c1ncc(-c2ccc3c(c2)cc2n3[C@H](c3cnc(C4CC4)s3)Oc3cc(-c4cnc([C@@H]5C[Si](C)(C)CN5C(=O)[C@@H](NC(=O)OC)C5CCCCC5)[nH]4)cc(F)c3-2)[nH]1)C(C)C (stereo partly shown) [Compound 7] -2.35

Which log10(EC90) is reported for this compound? COC(=O)N[C@H](C(=O)N1CCC[C@H]1c1ncc(-c2cc(F)c3c(c2)O[C@@H](c2cnc(C4CC4)s2)n2c-3cc3cc(-c4cnc([C@@H]5C[Si](C)(C)CN5C(=O)[C@@H](NC(=O)OC)[C@@H]5CCOC(C)(C)C5)[nH]4)ccc32)[nH]1)C(C)C [Compound 3] -2.01

Which log10(EC90) is reported for this compound? COC(=O)N[C@H](C(=O)N1CCC[C@H]1c1ncc(-c2cc(F)c3c(c2)O[C@@H](c2ccc(C4CC4)s2)n2c-3cc3cc(-c4cnc([C@@H]5C[Si](C)(C)CN5C(=O)[C@@H](NC(=O)OC)C(C)C)[nH]4)ccc32)[nH]1)C(C)C [Compound 13] -1.12

Which log10(EC90) is reported for this compound? COC(=O)N[C@H](C(=O)N1CCC[C@H]1c1ncc(-c2cc(F)c3c(c2)O[C@@H](c2ccc(C4CC4)s2)n2c-3cc3cc(-c4cnc([C@@H]5C[Si](C)(C)CN5C(=O)[C@@H](NC(=O)OC)[C@@H]5CCOC(C)(C)C5)[nH]4)ccc32)[nH]1)C(C)C [Compound 15] -2.12

Which log10(EC90) is reported for this compound? COC(=O)NC(C(=O)N1C[Si](C)(C)C[C@H]1c1ncc(-c2ccc3c(c2)cc2n3[C@H](c3ccc(C4CC4)s3)Oc3cc(-c4cnc([C@@H]5CCCN5C(=O)[C@@H](NC(=O)OC)C(C)C)[nH]4)cc(F)c3-2)[nH]1)C1CCC(F)(F)CC1 (stereo partly shown) [Compound 16] -1.29

Which log10(EC90) is reported for this compound? CNC(C(=O)N1C[Si](C)(C)C[C@H]1c1ncc(-c2ccc3c(c2)cc2n3[C@H](c3ccc(C4CC4)s3)Oc3cc(-c4cnc([C@@H]5CCCN5C(=O)[C@@H](NC(=O)OC)C(C)C)[nH]4)cc(F)c3-2)[nH]1)c1ccccc1 (stereo partly shown) [Compound 19] -1.97

Which log10(EC90) is reported for this compound? CNC(C(=O)N1C[Si](C)(C)C[C@H]1c1ncc(-c2ccc3c(c2)cc2n3[C@H](c3cnc(C4CC4)s3)Oc3cc(-c4cnc([C@@H]5CCCN5C(=O)[C@@H](NC(=O)OC)C(C)C)[nH]4)cc(F)c3-2)[nH]1)c1ccccc1 (stereo partly shown) [Compound 5] -1.44

* * *

# Tested on: HCV replicon GT2a
# PROCEDURE SUMMARY: Cell-based HCV replicon assay, GT2a
# MEASUREMENT CONDITIONS: Hepatitis C virus, 72 h, read-out: GT2a EC90
yes if EC90 is below 3 pM. no if not; exact matches included in no.

Please let me know if COC(=O)N[C@H](C(=O)N1CCC[C@H]1c1ncc(-c2cc(F)c3c(c2)O[C@@H](c2ccc(C4CC4)s2)n2c-3cc3cc(-c4cnc([C@@H]5C[Si](C)(C)CN5C(=O)[C@@H](NC(=O)OC)[C@@H]5CCOC(C)(C)C5)[nH]4)ccc32)[nH]1)C(C)C shows EC90 below 3 pM. yes

Please let me know if COC(=O)NC(C(=O)N1CCC[C@H]1c1ncc(-c2ccc3c(c2)cc2n3[C@H](c3cnc(C4CC4)s3)Oc3cc(-c4cnc([C@@H]5C[Si](C)(C)CN5C(=O)[C@@H](NC(=O)OC)[C@@H]5CCOC(C)(C)C5)[nH]4)cc(F)c3-2)[nH]1)C(C)C (stereo partly drawn) shows EC90 below 3 pM. yes

Please let me know if COC(=O)N[C@H](C(=O)N1CCC[C@H]1c1ncc(-c2cc(F)c3c(c2)O[C@@H](c2cnc(C4CC4)s2)n2c-3cc3cc(-c4cnc([C@@H]5C[Si](C)(C)CN5C(=O)[C@@H](NC(=O)OC)[C@@H]5CCOC(C)(C)C5)[nH]4)ccc32)[nH]1)C(C)C shows EC90 below 3 pM. yes

Please let me know if COC(=O)N[C@H](C(=O)N1CCC[C@H]1c1ncc(-c2cc(F)c3c(c2)O[C@@H](c2cnc(C4CC4)s2)n2c-3cc3cc(-c4cnc([C@@H]5C[Si](C)(C)CN5C(=O)[C@@H](NC(=O)OC)C(C)C)[nH]4)ccc32)[nH]1)C(C)C shows EC90 below 3 pM. yes

Please let me know if COC(=O)N[C@H](C(=O)N1CCC[C@H]1c1ncc(-c2cc(F)c3c(c2)O[C@@H](c2ccc(C4CC4)s2)n2c-3cc3cc(-c4cnc([C@@H]5C[Si](C)(C)CN5C(=O)[C@@H](NC(=O)OC)C(C)C)[nH]4)ccc32)[nH]1)C(C)C shows EC90 below 3 pM. no

Please let me know if COC(=O)N[C@H](C(=O)N1CCC[C@H]1c1ncc(-c2ccc3c(c2)cc2n3[C@H](c3cnc(C4CC4)s3)Oc3cc(-c4cnc([C@@H]5C[Si](C)(C)CN5C(=O)[C@@H](NC(=O)OC)C(C)C)[nH]4)cc(F)c3-2)[nH]1)C(C)C shows EC90 below 3 pM. no

* * *

Give EC90 for every item shown.
# System: HCV replicon GT2a
# PROCEDURE SUMMARY: Cell-based HCV replicon assay, GT2a
# MEASUREMENT CONDITIONS: Hepatitis C virus, 72 h, read-out: GT2a EC90
Answer format: numeric, pM implied, no suffix.

Which EC90 is reported for this compound? COC(=O)NC(C(=O)N1CCC[C@H]1c1ncc(-c2ccc3c(c2)cc2n3[C@H](c3cnc(C4CC4)s3)Oc3cc(-c4cnc([C@@H]5C[Si](C)(C)CN5C(=O)[C@@H](NC(=O)OC)C5CCCCC5)[nH]4)cc(F)c3-2)[nH]1)C(C)C (stereo partly shown) 1.77

Which EC90 is reported for this compound? COC(=O)NC(C(=O)N1C[Si](C)(C)C[C@H]1c1ncc(-c2ccc3c(c2)cc2n3[C@H](c3ccc(C4CC4)s3)Oc3cc(-c4cnc([C@@H]5CCCN5C(=O)[C@@H](NC(=O)OC)C(C)C)[nH]4)cc(F)c3-2)[nH]1)C1CCC(F)(F)CC1 (stereo partly shown) 5.75

Which EC90 is reported for this compound? COC(=O)NC(C(=O)N1CCC[C@H]1c1ncc(-c2ccc3c(c2)cc2n3[C@H](c3cnc(C4CC4)s3)Oc3cc(-c4cnc([C@@H]5C[Si](C)(C)CN5C(=O)[C@@H](NC(=O)OC)C5CCC(F)(F)CC5)[nH]4)cc(F)c3-2)[nH]1)C(C)C (stereo partly shown) 2.43

Which EC90 is reported for this compound? COC(=O)NC(C(=O)N1C[Si](C)(C)C[C@H]1c1ncc(-c2ccc3c(c2)cc2n3[C@H](c3ccc(C4CC4)s3)Oc3cc(-c4cnc([C@@H]5CCCN5C(=O)[C@@H](NC(=O)OC)C(C)C)[nH]4)cc(F)c3-2)[nH]1)C1CCOCC1 (stereo partly shown) 4.2

* * *

# Tested on: HCV replicon GT1a_Y93H
# PROCEDURE SUMMARY: Cell-based HCV replicon assay, GT1a Y93H
# MEASUREMENT CONDITIONS: Hepatitis C virus, 72 h, read-out: GT1a_Y93H EC90
Give log10 EC90 for every item shown.
# log10 transformed; quantity=EC90; unit=nM

Which log10 EC90 is reported for this compound? COC(=O)NC(C(=O)N1CCC[C@H]1c1ncc(-c2ccc3c(c2)cc2n3[C@H](c3cnc(C4CC4)s3)Oc3cc(-c4cnc([C@@H]5C[Si](C)(C)CN5C(=O)[C@H](N)c5ccccc5)[nH]4)cc(F)c3-2)[nH]1)C(C)C (some centres unmarked) 0.63

Which log10 EC90 is reported for this compound? COC(=O)N[C@H](C(=O)N1CCC[C@H]1c1ncc(-c2cc(F)c3c(c2)O[C@@H](c2cnc(C4CC4)s2)n2c-3cc3cc(-c4cnc([C@@H]5C[Si](C)(C)CN5C(=O)[C@@H](NC(=O)OC)[C@@H]5CCOC(C)(C)C5)[nH]4)ccc32)[nH]1)C(C)C -1.10

Which log10 EC90 is reported for this compound? COC(=O)N[C@H](C(=O)N1CCC[C@H]1c1ncc(-c2cc(F)c3c(c2)O[C@@H](c2ccc(C4CC4)s2)n2c-3cc3cc(-c4cnc([C@@H]5C[Si](C)(C)CN5C(=O)[C@@H](N)c5ccccc5)[nH]4)ccc32)[nH]1)C(C)C 0.09

Which log10 EC90 is reported for this compound? COC(=O)NC(C(=O)N1C[Si](C)(C)C[C@H]1c1ncc(-c2ccc3c(c2)cc2n3[C@H](c3cnc(C4CC4)s3)Oc3cc(-c4cnc([C@@H]5CCCN5C(=O)[C@@H](NC(=O)OC)C(C)C)[nH]4)cc(F)c3-2)[nH]1)C1CCOCC1 (some centres unmarked) -1.21

Which log10 EC90 is reported for this compound? COC(=O)NC(C(=O)N1C[Si](C)(C)C[C@H]1c1ncc(-c2ccc3c(c2)cc2n3[C@H](c3ccc(C4CC4)s3)Oc3cc(-c4cnc([C@@H]5CCCN5C(=O)[C@@H](NC(=O)OC)C(C)C)[nH]4)cc(F)c3-2)[nH]1)C1CCOCC1 (some centres unmarked) -1.70

Which log10 EC90 is reported for this compound? CNC(C(=O)N1C[Si](C)(C)C[C@H]1c1ncc(-c2ccc3c(c2)cc2n3[C@H](c3cnc(C4CC4)s3)Oc3cc(-c4cnc([C@@H]5CCCN5C(=O)[C@@H](NC(=O)OC)C(C)C)[nH]4)cc(F)c3-2)[nH]1)c1ccccc1 (some centres unmarked) -0.48

Which log10 EC90 is reported for this compound? COC(=O)N[C@H](C(=O)N1CCC[C@H]1c1ncc(-c2cc(F)c3c(c2)O[C@@H](c2ccc(C4CC4)s2)n2c-3cc3cc(-c4cnc([C@@H]5C[Si](C)(C)CN5C(=O)[C@H](N)c5ccccc5)[nH]4)ccc32)[nH]1)C(C)C 0.79

Which log10 EC90 is reported for this compound? COC(=O)N[C@H](C(=O)N1CCC[C@H]1c1ncc(-c2ccc3c(c2)cc2n3[C@H](c3cnc(C4CC4)s3)Oc3cc(-c4cnc([C@@H]5C[Si](C)(C)CN5C(=O)[C@@H](NC(=O)OC)C(C)C)[nH]4)cc(F)c3-2)[nH]1)C(C)C -0.70

Which log10 EC90 is reported for this compound? COC(=O)N[C@H](C(=O)N1CCC[C@H]1c1ncc(-c2cc(F)c3c(c2)O[C@@H](c2ccc(C4CC4)s2)n2c-3cc3cc(-c4cnc([C@@H]5C[Si](C)(C)CN5C(=O)[C@@H](NC(=O)OC)[C@@H]5CCOC(C)(C)C5)[nH]4)ccc32)[nH]1)C(C)C -0.73

Which log10 EC90 is reported for this compound? CN[C@@H](C(=O)N1C[Si](C)(C)C[C@H]1c1ncc(-c2cc(F)c3c(c2)O[C@@H](c2cnc(C4CC4)s2)n2c-3cc3cc(-c4cnc([C@@H]5CCCN5C(=O)C(NC(=O)OC)C(C)C)[nH]4)ccc32)[nH]1)c1ccccc1 (some centres unmarked) -0.03

Which log10 EC90 is reported for this compound? COC(=O)N[C@H](C(=O)N1CCC[C@H]1c1ncc(-c2cc(F)c3c(c2)O[C@@H](c2cnc(C4CC4)s2)n2c-3cc3cc(-c4cnc([C@@H]5C[Si](C)(C)CN5C(=O)[C@@H](NC(=O)OC)C(C)C)[nH]4)ccc32)[nH]1)C(C)C -0.64

Which log10 EC90 is reported for this compound? COC(=O)NC(C(=O)N1CCC[C@H]1c1ncc(-c2ccc3c(c2)cc2n3[C@H](c3cnc(C4CC4)s3)Oc3cc(-c4cnc([C@@H]5C[Si](C)(C)CN5C(=O)[C@@H](NC(=O)OC)C5CCC(F)(F)CC5)[nH]4)cc(F)c3-2)[nH]1)C(C)C (some centres unmarked) -0.54

Which log10 EC90 is reported for this compound? CNC(C(=O)N1C[Si](C)(C)C[C@H]1c1ncc(-c2ccc3c(c2)cc2n3[C@H](c3ccc(C4CC4)s3)Oc3cc(-c4cnc([C@@H]5CCCN5C(=O)[C@@H](NC(=O)OC)C(C)C)[nH]4)cc(F)c3-2)[nH]1)c1ccccc1 (some centres unmarked) -0.66

Which log10 EC90 is reported for this compound? COC(=O)NC(C(=O)N1C[Si](C)(C)C[C@H]1c1ncc(-c2ccc3c(c2)cc2n3[C@H](c3ccc(C4CC4)s3)Oc3cc(-c4cnc([C@@H]5CCCN5C(=O)[C@@H](NC(=O)OC)C(C)C)[nH]4)cc(F)c3-2)[nH]1)C1CCC(F)(F)CC1 (some centres unmarked) -0.01
